B1: TCAP (parent)
chain: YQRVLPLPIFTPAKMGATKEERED

Variants of: B1
Test: protein stability index of a GFP-peptide fusion (GPS, HEK-293T) (PSI 1-6); higher = more stable;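 further: lentivirally expressed fusions sorted by FACS into six bins by GFP to DsRed ratio, PSI derived from sequencing read proportions per bin multiplied by bin number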
Conditions: c terminus: a fixed tail appended
Each record here notes measured protein stability index.
REPORTED ENDPOINT: protein stability index

>  <RESIDUE CODES>
YQRVLPLPIFTPAGMGATKEERED [K14G]

>  <REPORTED ENDPOINT>
protein stability index

>  <MEASURED RESULT>
2.65

$$$$
>  <RESIDUE CODES>
YQRVLPLPIFTPWKMGATKEERED [A13W]

>  <REPORTED ENDPOINT>
protein stability index

>  <MEASURED RESULT>
2.02

$$$$
>  <RESIDUE CODES>
YQRVLPLPIFTPAKMGLTKEERED [A17L]

>  <REPORTED ENDPOINT>
protein stability index

>  <MEASURED RESULT>
1.67

$$$$
>  <RESIDUE CODES>
YQRVLPLPIFTPAKMGATKSERED [E20S]

>  <REPORTED ENDPOINT>
protein stability index

>  <MEASURED RESULT>
2.11

$$$$
>  <RESIDUE CODES>
YQRVLPLPIFTPTKMGATKEERED [A13T]

>  <REPORTED ENDPOINT>
protein stability index

>  <MEASURED RESULT>
2.64

$$$$
>  <RESIDUE CODES>
YQRVLPLPIFTPAKMGVTKEERED [A17V]

>  <REPORTED ENDPOINT>
protein stability index

>  <MEASURED RESULT>
1.76

$$$$
>  <RESIDUE CODES>
YQYVLPLPIFTPAKMGATKEERED [R3Y]

>  <REPORTED ENDPOINT>
protein stability index

>  <MEASURED RESULT>
4.55

$$$$
>  <RESIDUE CODES>
YQRVLPLVIFTPAKMGATKEERED [P8V]

>  <REPORTED ENDPOINT>
protein stability index

>  <MEASURED RESULT>
2

$$$$
>  <RESIDUE CODES>
NQRVLPLPIFTPAKMGATKEERED [Y1N]

>  <REPORTED ENDPOINT>
protein stability index

>  <MEASURED RESULT>
5.03

$$$$
>  <RESIDUE CODES>
YQRVLPLPIFTPAKMGATDEERED [K19D]

>  <REPORTED ENDPOINT>
protein stability index

>  <MEASURED RESULT>
2.03

$$$$
>  <RESIDUE CODES>
YQRVLPLPIFTPAEMGATKEERED [K14E]

>  <REPORTED ENDPOINT>
protein stability index

>  <MEASURED RESULT>
2.63

$$$$
>  <RESIDUE CODES>
YQRVLPLPIFTPAKMSATKEERED [G16S]

>  <REPORTED ENDPOINT>
protein stability index

>  <MEASURED RESULT>
2.16

$$$$
>  <RESIDUE CODES>
YQRVLPLPIFTPAKMGATKEEREP [D24P]

>  <REPORTED ENDPOINT>
protein stability index

>  <MEASURED RESULT>
1.85

$$$$
>  <RESIDUE CODES>
YQRVLRLPIFTPAKMGATKEERED [P6R]

>  <REPORTED ENDPOINT>
protein stability index

>  <MEASURED RESULT>
1.66

$$$$
>  <RESIDUE CODES>
YQRVLPLFIFTPAKMGATKEERED [P8F]

>  <REPORTED ENDPOINT>
protein stability index

>  <MEASURED RESULT>
1.45

$$$$
>  <RESIDUE CODES>
YQRVLPLPIFLPAKMGATKEERED [T11L]

>  <REPORTED ENDPOINT>
protein stability index

>  <MEASURED RESULT>
2.71

$$$$
>  <RESIDUE CODES>
YQRVLPLPIFTPNKMGATKEERED [A13N]

>  <REPORTED ENDPOINT>
protein stability index

>  <MEASURED RESULT>
1.67

$$$$
>  <RESIDUE CODES>
YQRVLPLPIFTPAKMGAMKEERED [T18M]

>  <REPORTED ENDPOINT>
protein stability index

>  <MEASURED RESULT>
1.52

$$$$
>  <RESIDUE CODES>
YQNVLPLPIFTPAKMGATKEERED [R3N]

>  <REPORTED ENDPOINT>
protein stability index

>  <MEASURED RESULT>
2.46

$$$$
>  <RESIDUE CODES>
YQRVLPLPIFTPAKMEATKEERED [G16E]

>  <REPORTED ENDPOINT>
protein stability index

>  <MEASURED RESULT>
2.16

$$$$
>  <RESIDUE CODES>
YQRVLPLPQFTPAKMGATKEERED [I9Q]

>  <REPORTED ENDPOINT>
protein stability index

>  <MEASURED RESULT>
3.74

$$$$
>  <RESIDUE CODES>
YQRVLPLPIFTPAKMGATKEERSD [E23S]

>  <REPORTED ENDPOINT>
protein stability index

>  <MEASURED RESULT>
2

$$$$
>  <RESIDUE CODES>
YQRSLPLPIFTPAKMGATKEERED [V4S]

>  <REPORTED ENDPOINT>
protein stability index

>  <MEASURED RESULT>
1.72

$$$$
>  <RESIDUE CODES>
YQRVLPLPIFTPAKCGATKEERED [M15C]

>  <REPORTED ENDPOINT>
protein stability index

>  <MEASURED RESULT>
2.12

$$$$
>  <RESIDUE CODES>
YQRVLPLPIFTPAKMGATKEEQED [R22Q]

>  <REPORTED ENDPOINT>
protein stability index

>  <MEASURED RESULT>
1.67

$$$$
>  <RESIDUE CODES>
YQRVLPLPIFTPADMGATKEERED [K14D]

>  <REPORTED ENDPOINT>
protein stability index

>  <MEASURED RESULT>
3.13

$$$$
>  <RESIDUE CODES>
YQRNLPLPIFTPAKMGATKEERED [V4N]

>  <REPORTED ENDPOINT>
protein stability index

>  <MEASURED RESULT>
1.83

$$$$
>  <RESIDUE CODES>
YQRVLPLPIFTPAKMGATKKERED [E20K]

>  <REPORTED ENDPOINT>
protein stability index

>  <MEASURED RESULT>
1.81

$$$$
>  <RESIDUE CODES>
YQRVLPLPIFTPAKMGATWEERED [K19W]

>  <REPORTED ENDPOINT>
protein stability index

>  <MEASURED RESULT>
1.81

$$$$
>  <RESIDUE CODES>
YQRVLPLPIFTPAKMGETKEERED [A17E]

>  <REPORTED ENDPOINT>
protein stability index

>  <MEASURED RESULT>
2.07

$$$$
>  <RESIDUE CODES>
YFRVLPLPIFTPAKMGATKEERED [Q2F]

>  <REPORTED ENDPOINT>
protein stability index

>  <MEASURED RESULT>
3.21

$$$$
>  <RESIDUE CODES>
YQRVLPLPIFTPAKMGATKEERGD [E23G]

>  <REPORTED ENDPOINT>
protein stability index

>  <MEASURED RESULT>
2

$$$$
>  <RESIDUE CODES>
YQRVLPLPFFTPAKMGATKEERED [I9F]

>  <REPORTED ENDPOINT>
protein stability index

>  <MEASURED RESULT>
2.31

$$$$
>  <RESIDUE CODES>
YQRVLPLPIFTPAKMGATKQERED [E20Q]

>  <REPORTED ENDPOINT>
protein stability index

>  <MEASURED RESULT>
1.73

$$$$
>  <RESIDUE CODES>
YQRVLPLPIFTPAKMGATKEELED [R22L]

>  <REPORTED ENDPOINT>
protein stability index

>  <MEASURED RESULT>
1.79

$$$$
>  <RESIDUE CODES>
YERVLPLPIFTPAKMGATKEERED [Q2E]

>  <REPORTED ENDPOINT>
protein stability index

>  <MEASURED RESULT>
3.53

$$$$
>  <RESIDUE CODES>
YQRVLHLPIFTPAKMGATKEERED [P6H]

>  <REPORTED ENDPOINT>
protein stability index

>  <MEASURED RESULT>
2.11

$$$$
>  <RESIDUE CODES>
YQRVLPIPIFTPAKMGATKEERED [L7I]

>  <REPORTED ENDPOINT>
protein stability index

>  <MEASURED RESULT>
2.19

$$$$
>  <RESIDUE CODES>
YQRVLPLPIFTPAKMGATKEGRED [E21G]

>  <REPORTED ENDPOINT>
protein stability index

>  <MEASURED RESULT>
1.75

$$$$
>  <RESIDUE CODES>
VQRVLPLPIFTPAKMGATKEERED [Y1V]

>  <REPORTED ENDPOINT>
protein stability index

>  <MEASURED RESULT>
4.33

$$$$
>  <RESIDUE CODES>
YQRVLPCPIFTPAKMGATKEERED [L7C]

>  <REPORTED ENDPOINT>
protein stability index

>  <MEASURED RESULT>
1.42

$$$$
>  <RESIDUE CODES>
YQHVLPLPIFTPAKMGATKEERED [R3H]

>  <REPORTED ENDPOINT>
protein stability index

>  <MEASURED RESULT>
1.88

$$$$
>  <RESIDUE CODES>
YQRVLPLEIFTPAKMGATKEERED [P8E]

>  <REPORTED ENDPOINT>
protein stability index

>  <MEASURED RESULT>
2.46

$$$$
>  <RESIDUE CODES>
YQRVLPLPIFTPAKMGRTKEERED [A17R]

>  <REPORTED ENDPOINT>
protein stability index

>  <MEASURED RESULT>
2.05

$$$$
>  <RESIDUE CODES>
YQRVLPLHIFTPAKMGATKEERED [P8H]

>  <REPORTED ENDPOINT>
protein stability index

>  <MEASURED RESULT>
2.15

$$$$
>  <RESIDUE CODES>
YQRVLCLPIFTPAKMGATKEERED [P6C]

>  <REPORTED ENDPOINT>
protein stability index

>  <MEASURED RESULT>
1.72

$$$$
